- assay.overview: Stat Signaling Pathway (AID 446);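 further: ME-180 cervical cancer cells given 40 pM IL-6 alongside compound; SIE-controlled beta-lactamase reporter measured as 460/530 nm FRET emission ratio; on the % scale 0 is the no-effect control and ±100 the full control effect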
- run.conditions: ME-180 (cervical carcinoma) SIE beta-lactamase reporter, IL-6 stimulated, 5 h; at 7.69 µM (top of the series) unless noted
Results filed as inconclusive are left out. Calls of active or inactive are those of the source. The call rests on the fitted dose curve; in most records, active means well fitted curve in either direction with a large enough effect (not every such curve was filed as active); inconclusive means small, poorly fitted or top-dose-only effect, or another doubt; inactive means flat fitted curve, though single readings scatter.
measurement.name: activity, negative = inhibition

Sample records with activity, negative = inhibition:
# compound, result
rows = [
    ("CO/N=C(\\C(=O)N[C@@H]1C(=O)N2C(C(=O)[O-])=C(C[N+]3(C)CCCC3)CS[C@@H]12)c1csc(N)n1", "11.5% [at 17.2 µM] (inactive)"),
    ("CCOC(=O)Nc1nc(-c2ccccc2)c(C)s1", "1.24% (inactive)"),
]

Each of the following entries comes with a recorded value; kindly state activity, negative = inhibition for each.
1. C[N+](C)(C)CC(=O)N/N=C\c1c(O)ccc2ccccc12
2. NC(=O)C[C@@H](N)c1nn[nH]n1
3. Cn1c(=O)c2[nH]c([C@@H]3CC(=O)C[C@H](c4nc5c([nH]4)c(=O)n(C)c(=O)n5C)N3)nc2n(C)c1=O
4. Cc1ccc(N[C@H](c2ccccc2)c2ccc3cccnc3c2O)cc1
5. CN1CCN(CCCNN)CC1
6. C/C(=N/Nc1ccc2ccccc2n1)c1ccccc1O

1: 10.1% (inactive); 2: 9.79% (inactive); 3: 6.09% (inactive); 4: 3.71% (inactive); 5: 1.99% (inactive); 6: 7.92% (inactive)
